// reported % residual fluorescence of labeled mAb per item
# STUDY_SYSTEM: T1, human CD3 (human, UniProt P07766 23-207; P09693 23-182; P04234 22-171)
# T1 construct: whole, on cells; also called CD3 on Jurkat T cells; CD3 on primary human T cells
# MEASUREMENT_PROTOCOL: flow competition on Jurkat, 100 nM unlabeled mAb; competitor AF488-SP34.2 20 nM
Output spec: scalar in %, unitless text.

binder="F332-5D4 (antibody, mouse IgG2b, V domains shown, also called F332-5D4-2; F332-5D4 (5F8)) VH: QVQLQQPGAELGKPGTSVKLSCKASGYTFTSYWMHWVKQRPGQGLEWIGNINPNGGDSNYNEKFKSKATLTVDMSSSTAYMQLSTLTSEDSAVYYCTRDISGQYYFDFWGQGTSLTVFS VL: DILMSQSPSSLAVSAGEQVTMSCKSSQSLLNSRTRKNYLAWYQQKPGQSPKLLIFWASTRKSGVPDRFTGSGSGTYFTLTINSVQTEDLAVYYCTQSYSLRTFGGGTKLEIK" measurement_type="% residual fluorescence of labeled mAb" measurement=10

Here is another binder to look at.
% residual fluorescence of labeled mAb reading for F332-7E3 (antibody, mouse IgG2a, V domains shown, also called F332-7E3-2) VH: QVQLQQPGAELGKPGTSVKLSCKASGYTFTSYWIHWVKQRPGQGLEWIGNINPNSGSINYNEKFKSKATLTVDKSSSTAYMQLSTLTSEDFAVYYCTRDTSGQYYFDYWGQGTTLTVSS VL: DIVMSQSPSSLAVSAGEKVTMSCKSSQSLLNSRTRKNYLAWYQQKPGQSPKLLIYWASTRESGVPDRFTGSGSGTDFTLTISSVQAEDLAVYYCKQSYHLRTFGGGTKLEIK : 12
